Experiment: Tmax in human at 75 to 200 mg administered as multiple ascending dose
Assay type: ADME
Settings: in vivo, dose 75-200 mg
reported_property: Tmax (h)
Value expressed in h; do not type the unit.

So for Cc1c(C#N)cccc1-c1cc(-c2cn(Cc3cccc(C(C)(C)O)n3)nn2)nc(N)n1 , the logged Tmax turned out to be 1.5

----------
Biological target: Adenosine receptor A2a (Homo sapiens, UniProt P29274)
Sequence (P29274 whole entry): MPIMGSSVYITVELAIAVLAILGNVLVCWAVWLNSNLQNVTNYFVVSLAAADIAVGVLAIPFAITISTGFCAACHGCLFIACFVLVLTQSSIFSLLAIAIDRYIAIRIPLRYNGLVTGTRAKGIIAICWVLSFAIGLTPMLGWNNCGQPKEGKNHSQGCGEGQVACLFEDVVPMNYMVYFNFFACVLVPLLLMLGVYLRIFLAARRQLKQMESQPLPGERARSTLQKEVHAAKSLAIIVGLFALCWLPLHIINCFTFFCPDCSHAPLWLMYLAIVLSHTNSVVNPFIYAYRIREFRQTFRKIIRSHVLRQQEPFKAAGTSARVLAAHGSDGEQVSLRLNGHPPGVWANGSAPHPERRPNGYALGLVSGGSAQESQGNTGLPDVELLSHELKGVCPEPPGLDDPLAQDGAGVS
reported_property: pKi
In simple prose, pKi is minus the logarithm base ten of a concentration in moles per litre.

Item Cc1cccnc1CNC(=O)c1c(N)nc(-c2ccco2)nc1OCCF was tested on Adenosine receptor A2a (Homo sapiens, UniProt P29274); the reported pKi is 8.89

----------
Assay: Half life in human at 75 to 200 mg
Assay type: ADME
Conditions: dose 75-200 mg
reported_property: half-life (h)
Give just the number in h; leave the unit off.

Lab book: half-life of Cc1c(C#N)cccc1-c1cc(-c2cn(Cc3cccc(C(C)(C)O)n3)nn2)nc(N)n1 noted as 20

----------
Biological target: Adenosine receptor A2b (Homo sapiens, UniProt P29275)
Sequence (P29275 whole entry): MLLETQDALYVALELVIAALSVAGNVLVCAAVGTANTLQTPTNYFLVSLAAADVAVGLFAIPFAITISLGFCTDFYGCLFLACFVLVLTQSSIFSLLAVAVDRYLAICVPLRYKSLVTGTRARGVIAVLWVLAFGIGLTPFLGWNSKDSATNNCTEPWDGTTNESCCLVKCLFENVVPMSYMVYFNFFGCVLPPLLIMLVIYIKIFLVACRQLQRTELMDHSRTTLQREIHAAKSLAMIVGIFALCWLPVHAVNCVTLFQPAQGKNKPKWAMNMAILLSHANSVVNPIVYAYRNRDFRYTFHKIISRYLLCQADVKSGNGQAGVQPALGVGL
Test: Inhibition of FRET-labelled CA200645 binding to human adenosine 2B receptor expressed in CHO cells incubated for 2 hr by TR-FRET assay
Format: cell-based
reported_property: Ki (nM)
Respond with the bare value in nM.

Measured on Adenosine receptor A2b (Homo sapiens, UniProt P29275), COc1nc(-c2ncco2)nc(N)c1C(=O)NCc1c(Cl)cccc1Cl has a documented Ki of 5.4

----------
Test: Tmax in human at 75 to 200 mg administered as single ascending dose
Type: ADME
Settings: in vivo, dose 75-200 mg
reported_property: Tmax (h)
Please respond with the number in h and leave the unit unwritten.

Please fill in: Tmax reported for Cc1c(C#N)cccc1-c1cc(-c2cn(Cc3cccc(C(C)(C)O)n3)nn2)nc(N)n1 [ETRUMADENANT] = 2

----------
Biological target: Adenosine receptor A2a (Mus musculus)
Test: Antagonist activity at adenosine 2A receptor in BALB/c mouse T cells assessed as reduction in CGS-21680-induced suppression of IL-2 secretion incubated for 24 hrs by ELISA
Type: cell-based, T cell
reported_property: IC50 (nM)
Kindly answer with a numeric value in nM, unit omitted.

For the compound COc1ccc(-c2cnn(C)c2)c2nc(NC(=O)c3ccc(Cn4ccnc4)cc3)[nH]c12 , the measured IC50 on Adenosine receptor A2a (Mus musculus) was 40

----------
Target: Adenosine receptor A2a (Mus musculus, UniProt Q60613)
Sequence (Q60613 whole entry): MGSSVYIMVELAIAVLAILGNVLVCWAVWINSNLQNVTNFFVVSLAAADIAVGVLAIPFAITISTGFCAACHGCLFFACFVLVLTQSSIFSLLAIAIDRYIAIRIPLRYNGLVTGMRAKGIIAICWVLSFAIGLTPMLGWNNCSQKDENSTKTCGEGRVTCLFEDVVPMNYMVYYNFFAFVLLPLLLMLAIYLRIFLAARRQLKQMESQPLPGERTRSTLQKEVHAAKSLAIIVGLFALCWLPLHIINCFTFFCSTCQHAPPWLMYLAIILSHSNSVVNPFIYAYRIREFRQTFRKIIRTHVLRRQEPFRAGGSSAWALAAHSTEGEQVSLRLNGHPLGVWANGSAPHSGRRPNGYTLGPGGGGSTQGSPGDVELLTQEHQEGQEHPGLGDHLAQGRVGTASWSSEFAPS
Assay: Antagonist activity at adenosine 2A receptor in BALB/c mouse T cells assessed as reduction in CGS-21680-induced suppression of IFN-gamma secretion incubated for 24 hrs by ELISA
Assay type: cell-based, T cell
reported_property: IC50
A bare number is not enough; add the unit after it.

Please fill in: IC50 reported for COc1ccc(-c2cnn(C)c2)c2nc(NC(=O)c3ccc(Cn4ccnc4)cc3)[nH]c12 = 40 nM

----------
Assay: Cmax in mouse at 1 mg/kg, iv measured up to 24 hrs by LC-MS/MS analysis
Format: ADME, organism-based
Parameters: route intravenous, dose 1 mg/kg, time <=24
Details: in vivo
The following molecules are listed with their measured Cmax values.
Your answer should be a plain number; it is taken to be in ng/mL.

Worked cases, answers included:
COCCn1cc(C(=O)Nc2cnc3c(C4CCOCC4)ccc(OC)c3n2)cn1 = 1220
COc1ncc(N2CCOCC2)c2sc(NC(=O)N3CCC(C)(O)CC3)nc12 = 449
COc1ncc(N2CCOCC2)c2nc(NC(=O)N3CCC(C)(O)CC3)[nH]c12 = 2650

// Cmax value for COc1ccc(N2CCOCC2)c2sc(NC(=O)N3CCC(C)(O)CC3)nc12 [TOZADENANT] : 337

// Cmax lookup, molecule = COc1ccc(-c2cnn(C)c2)c2nc(NC(=O)N3CC[C@@]4(CCCOC4)C3)[nH]c12 , result: 1440

----------
Biological target: Adenosine receptor A2a (Homo sapiens)
Test: Antagonist activity at human adenosine 2A receptor expressed in HEK293 cells assessed as reduction in cAMP production preincubated for 10 mins followed by adenosine addition and measured after 30 mins by EU-cAMP tracer based TR-FRET assay
Type: functional, cell-based
reported_property: pIC50
Please report pIC50 as the negative decimal logarithm of the molar concentration, giving only the number.

Consider NC(=O)Cc1cc(N2CCN(CCn3c(=O)sc4c3nc(N)n3nc(-c5ccco5)nc43)CC2)c(F)cc1F . Its measured pIC50 is 7.31

----------
Target: Adenosine receptor A3 (Homo sapiens)
Sequence (P0DMS8 whole entry): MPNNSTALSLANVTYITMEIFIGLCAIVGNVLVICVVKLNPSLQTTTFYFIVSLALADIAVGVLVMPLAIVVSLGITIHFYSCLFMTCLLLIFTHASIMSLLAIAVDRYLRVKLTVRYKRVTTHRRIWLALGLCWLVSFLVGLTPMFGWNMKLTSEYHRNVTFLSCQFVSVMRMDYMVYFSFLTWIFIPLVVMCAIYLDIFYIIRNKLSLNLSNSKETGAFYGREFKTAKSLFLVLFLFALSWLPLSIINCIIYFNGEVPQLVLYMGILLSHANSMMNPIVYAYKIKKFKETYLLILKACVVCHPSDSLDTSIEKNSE
Experiment: Antagonist activity at human adenosine A3 receptor expressed in HeLa cells by radioligand competition binding assay
Format: cell-based
reported_property: pKi
Give only the number. pKi is defined as minus log10 of concentration in molar units.

Note to self: pKi of Nc1nc(-n2cccn2)nc(-n2cccn2)c1Br with Adenosine receptor A3 (Homo sapiens) was 5.30

----------
Target: Adenosine receptor A3 (Homo sapiens)
Experiment: Inhibition of FRET-labelled CA200645 binding to human adenosine A3 receptor expressed in CHO cells incubated for 2 hr by TR-FRET assay
Assay type: cell-based
reported_property: Ki
Express the reported value numerically, then name its unit.

Ki measured on Cc1cccnc1CNC(=O)c1c(N)nc(-c2ccco2)nc1OCCF = 0.062 µM

----------
Target: Adenosine receptor A1 (Homo sapiens, UniProt P30542)
Sequence (P30542 whole entry): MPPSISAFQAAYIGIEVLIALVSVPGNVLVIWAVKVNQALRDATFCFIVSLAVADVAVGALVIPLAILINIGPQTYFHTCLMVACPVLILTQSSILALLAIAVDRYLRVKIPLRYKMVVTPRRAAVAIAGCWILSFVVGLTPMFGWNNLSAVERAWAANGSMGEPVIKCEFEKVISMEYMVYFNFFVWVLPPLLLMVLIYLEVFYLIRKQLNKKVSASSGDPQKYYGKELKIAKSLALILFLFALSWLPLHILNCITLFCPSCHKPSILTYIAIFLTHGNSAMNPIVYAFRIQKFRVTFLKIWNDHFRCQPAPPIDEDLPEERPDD
Experiment: Inhibition of FRET-labelled CA200645 binding to human adenosine A1 receptor expressed in CHO cells incubated for 2 hr by TR-FRET assay
Assay type: cell-based
reported_property: Ki

Please fill in: Ki reported for Cc1cccnc1CNC(=O)c1c(N)nc(-c2ccco2)nc1OCCF = 260 nM

----------
Molecular target: Adenosine receptor A1 (Homo sapiens, UniProt P30542)
Assay: Antagonist activity at human adenosine A1 receptor expressed in CHO cells by radioligand competition binding assay
Assay type: cell-based
reported_property: pKi
Bear in mind: pKi is minus log10 of a mol/L concentration; give just that figure.

Quick note, pKi for Nc1nc(-n2cccn2)nc(-n2cccn2)c1Br landed at 5.60

----------
Biological target: Adenosine receptor A2a (Homo sapiens, UniProt P29274)
Assay: Antagonist activity at human adenosine 2A receptor expressed in HEK293 cells assessed as reduction in cAMP production preincubated for 10 mins followed by 3 nM A2A agonist NECA addition and measured after 30 mins by EU-cAMP tracer based TR-FRET assay
Format: functional, cell-based
reported_property: IC50 (nM)
Write the value in nM as a bare number.

IC50 measured on NC(=O)Cc1cc(N2CCN(CCn3c(=O)sc4c3nc(N)n3nc(-c5ccco5)nc43)CC2)c(F)cc1F = 0.5

----------
pIC50 for assorted molecules
Biological target: Adenosine receptor A2a (Homo sapiens)
Assay: Antagonist activity at human adenosine 2A receptor expressed in HEK293 cells assessed as reduction in NECA-induced cAMP level incubated for 15 mins by HTRF assay
Assay type: functional, cell-based
pIC50: −log10 of the molar value.

COc1ccc(N2CCOCC2)c2nc(NC(=O)c3cccc(N4CCOCC4)c3)[nH]c12 = > 8.00

COc1ccc(-c2ccccc2)c2ncc(NC(=O)N3CCC(C)(O)CC3)nc12 yielded pIC50 of > 7.00

Recorded pIC50 (molecule COCCn1cc(C(=O)Nc2nc3c(OC)ncc(N4CCOCC4)c3s2)cn1 ): > 8.00

Recorded result, COc1ncc(-c2ccccc2)c2ncc(NC(=O)N3CCC(C)(O)CC3)nc12 , pIC50: > 7.00

----------
Biological target: Adenosine receptor A2b (Homo sapiens, UniProt P29275)
Assay: Antagonist activity at human adenosine A2b receptor expressed in HEK293 cells by radioligand competition binding assay
Format: cell-based
reported_property: pKi
Keep it numeric: pKi is minus log10 of the concentration in mol/L.

The recorded pKi for Nc1nc(-n2cccn2)nc(-n2cccn2)c1Br is 6.00

----------
Test: Half life in mouse at 2 mg/kg, iv or 10 mg/kg, po measured up to 24 hrs by LC-MS/MS analysis
Type: ADME, organism-based
Settings: in vivo
reported_property: half-life (min)
Just the number in min, nothing appended.

Examples with answers:
COc1ccc(-c2cnn(C)c2)c2nc(NC(=O)N3CCC(C)(O)CC3)[nH]c12 = 52
COc1ncc(N2CCOCC2)c2sc(NC(=O)N3CCC(C)(O)CC3)nc12 = 10.3
COc1ncc(N2CCOCC2)c2nc(NC(=O)c3cnn(C)c3)[nH]c12 = 103
COc1ncc(N2CCOCC2)c2nc(NC(=O)N3CCC(C)(O)CC3)[nH]c12 = 50.3
COc1ccc(-c2cnn(C)c2)c2nc(NC(=O)N3CC[C@@]4(CCCOC4)C3)[nH]c12 = 66.6

Summary for this molecule, COc1ccc(N2CCOCC2)c2nc(NC(=O)c3cccc(N4CCOCC4)c3)[nH]c12 : half-life is 69

Record COCCn1cc(C(=O)Nc2cnc3c(C4CCOCC4)ccc(OC)c3n2)cn1 . Reported half-life: 20.3

get_value(item= COc1ccc(N2CCOCC2)c2sc(NC(=O)N3CCC(C)(O)CC3)nc12 , readout=half-life) returns 11

response.value for COCCn1cc(C(=O)Nc2nc3c(OC)ncc(N4CCOCC4)c3s2)cn1 (field: half-life) = 49

Input COCCn1cc(C(=O)Nc2nc3c(OC)ccc(N4CCOCC4)c3s2)cn1 . Output half-life: 19.9

GET /value?item= COc1ccc(C2CCOCC2)c2ncc(NC(=O)N3CCC(C)(O)CC3)nc12 &field=half-life returns 55.2

Hey, just so you know, these numbers are from ChEMBL document CHEMBL4699449.
